Taken from the Immune Epitope Database (IEDB).

target: HLA-B*07:02; assay: IEDB peptide-MHC binding, purified MHC/direct/fluorescence; filed as Kd, often an IC50 or EC50 that approximates it; bounds were set here for any values at or beyond the usual limits of such assays; conditions: source organism: Yersinia pestis Nepal516
Observed Property: Kd

// Kd value for LSEEIGLDL : ≥ 20 µM

###

molecular target: HLA-A*33:01; experiment: IEDB peptide-MHC binding, purified MHC/competitive/radioactivity; filed as Kd, often an IC50 or EC50 that approximates it; bounds were set here for any values at or beyond the usual limits of such assays; conditions: source organism: Mammarenavirus machupoense
A collection of sequences and their measured Kd
# value in nM; strip the unit string

SFFQEIPVFL    2410

Moving on to another sequence below.
// Kd value for RTAPPSLYGR : 2390

###

target: HLA-A*02:12; test: IEDB peptide-MHC binding, purified MHC/direct/fluorescence; filed as Kd, often an IC50 or EC50 that approximates it; bounds were set here for any values at or beyond the usual limits of such assays; conditions: source organism: Cryptosporidium parvum Iowa II
Observed Property: Kd

// Kd value for LPWFLDTTI : ≥ 20 µM

###

molecular target: HLA-B*45:06; assay: IEDB peptide-MHC binding, purified MHC/competitive/fluorescence; filed as Kd, often an IC50 or EC50 that approximates it; bounds were set here for any values at or beyond the usual limits of such assays; conditions: source organism: Staphylococcus aureus subsp. aureus N315
pKd: −log10 of the molar value.
Observed Property: pKd

// pKd value for YTIGIGAFY : ≤ 5.30

###

molecular target: HLA-A*01:01; assay: IEDB peptide-MHC binding, purified MHC/direct/fluorescence; filed as Kd, often an IC50 or EC50 that approximates it; bounds were set here for any values at or beyond the usual limits of such assays; conditions: source organism: SARS-CoV1
A collection of sequences and their measured pKd
Just the number, please; pKd means minus log10 of the concentration in mol/L.

FVDGVPFVV    5.85

Moving on to another sequence below.
// pKd value for TQDLFLPFY : 5.74

###

target: HLA-B*58:01; test: IEDB peptide-MHC binding, purified MHC/competitive/radioactivity; filed as Kd, often an IC50 or EC50 that approximates it; bounds were set here for any values at or beyond the usual limits of such assays; conditions: source organism: Dengue virus 2 Jamaica/1409/1983
Observed Property: Kd (nM)
# value in nM; strip the unit string

Entry IAASIILEF ; assay system HLA-B*58:01; Kd recorded at 7.03

###

A collection of sequences and their measured pKd
target: HLA-B*27:05; test: IEDB peptide-MHC binding, purified MHC/direct/fluorescence; filed as Kd, often an IC50 or EC50 that approximates it; bounds were set here for any values at or beyond the usual limits of such assays; settings: source organism: Mycobacterium tuberculosis
pKd: −log10 of the molar value.

The examples below pair each entry with its known result.
FHVNPAFVL    ≤ 4.70
RPRCAYLPF    ≤ 4.70

Moving on to another sequence below.
// pKd value for YPARVKCAL : ≤ 4.70

###

target: HLA-B*44:03; assay: IEDB peptide-MHC binding, purified MHC/competitive/fluorescence; bounds were set here for any values at or beyond the usual limits of such assays; details: source organism: Gorilla gorilla gorilla
pIC50: −log10 of the molar value.
Observed Property: pIC50

// pIC50 value for RYSHWTKL : ≤ 4.70

###

biological target: HLA-A*31:01; test: IEDB peptide-MHC binding, purified MHC/direct/fluorescence; filed as Kd, often an IC50 or EC50 that approximates it; bounds were set here for any values at or beyond the usual limits of such assays; settings: source organism: Giardia lamblia ATCC 50803
Observed Property: pKd
Just the number, please; pKd means minus log10 of the concentration in mol/L.

SVFHEHIFK    6.87

Moving on to another sequence below.
// pKd value for YIASIFMPR : 7.96

###

target: HLA-A*31:01; assay: IEDB peptide-MHC binding, purified MHC/competitive/radioactivity; filed as Kd, often an IC50 or EC50 that approximates it; bounds were set here for any values at or beyond the usual limits of such assays; conditions: source organism: Variola virus
pKd: −log10 of the molar value.
Observed Property: pKd

// pKd value for VTSSGVIYK : ≤ 4.15

###

target: HLA-A*11:01; test: IEDB peptide-MHC binding, purified MHC/competitive/radioactivity; filed as Kd, often an IC50 or EC50 that approximates it; bounds were set here for any values at or beyond the usual limits of such assays; details: source organism: Mammarenavirus guanaritoense
pKd: −log10 of the molar value.
Observed Property: pKd

// pKd value for KCSDHYLCLR : ≤ 4.35

###

biological target: HLA-B*15:01; experiment: IEDB peptide-MHC binding, purified MHC/competitive/fluorescence; filed as Kd, often an IC50 or EC50 that approximates it; bounds were set here for any values at or beyond the usual limits of such assays; details: source organism: Yersinia pestis Nepal516
Observed Property: Kd (nM)
# value in nM; strip the unit string

// Kd value for CLLSHTLAY : 225

###

biological target: HLA-A*03:01; test: IEDB peptide-MHC binding, purified MHC/competitive/fluorescence; filed as Kd, often an IC50 or EC50 that approximates it; bounds were set here for any values at or beyond the usual limits of such assays; conditions: source organism: Plasmodium yoelii yoelii
Observed Property: Kd

// Kd value for KPPRGVLLY : ≥ 20 µM

###

biological target: HLA-A*03:01; assay: IEDB peptide-MHC binding, purified MHC/competitive/radioactivity; filed as Kd, often an IC50 or EC50 that approximates it; bounds were set here for any values at or beyond the usual limits of such assays; conditions: source organism: Dengue virus 4 Philippines/H241/1956
A collection of sequences and their measured pKd
Just the number, please; pKd means minus log10 of the concentration in mol/L.

ALLAGFMAY    8.78
VVRPPFNMLK    8.35

Moving on to another sequence below.
// pKd value for PVYLMTLMK : 8.41

###

biological target: HLA-B*15:01; experiment: IEDB peptide-MHC binding, purified MHC/direct/fluorescence; filed as Kd, often an IC50 or EC50 that approximates it; bounds were set here for any values at or beyond the usual limits of such assays; conditions: source organism: Cryptosporidium parvum Iowa II
Observed Property: Kd

Entry LPWFLDTTI ; assay system HLA-B*15:01; Kd recorded at ≥ 20 µM

###

molecular target: HLA-A*26:01; experiment: IEDB peptide-MHC binding, purified MHC/competitive/radioactivity; filed as Kd, often an IC50 or EC50 that approximates it; bounds were set here for any values at or beyond the usual limits of such assays; conditions: source organism: Dengue virus 3 Martinique/1243/1999
Observed Property: Kd (nM)
# value in nM; strip the unit string

// Kd value for ETTKRDLGM : 1450

###

target: HLA-A*02:03; test: IEDB peptide-MHC binding, purified MHC/competitive/radioactivity; filed as Kd, often an IC50 or EC50 that approximates it; bounds were set here for any values at or beyond the usual limits of such assays; details: source organism: Dengue virus 3 Martinique/1243/1999
A collection of sequences and their measured pKd
Just the number, please; pKd means minus log10 of the concentration in mol/L.

ALFSGVSWV    9.44
NIVASVNMV    7.08

Moving on to another sequence below.
// pKd value for SAYTALFSGV : 8.15

###

biological target: HLA-A*11:01; experiment: IEDB peptide-MHC binding, purified MHC/competitive/radioactivity; filed as Kd, often an IC50 or EC50 that approximates it; bounds were set here for any values at or beyond the usual limits of such assays; details: source organism: Lymphocytic choriomeningitis virus (strain Pasteur)
Observed Property: pKd
Just the number, please; pKd means minus log10 of the concentration in mol/L.

// pKd value for TYLGPLNCK : 7.32

###

biological target: HLA-C*03:03; assay: IEDB peptide-MHC binding, purified MHC/direct/fluorescence; filed as Kd, often an IC50 or EC50 that approximates it; bounds were set here for any values at or beyond the usual limits of such assays; settings: source organism: Giardia lamblia P15
Observed Property: Kd

Entry SQDDNYFTL ; assay system HLA-C*03:03; Kd recorded at 266 nM

###

biological target: HLA-B*07:02; assay: IEDB peptide-MHC binding, purified MHC/competitive/fluorescence; bounds were set here for any values at or beyond the usual limits of such assays; details: source organism: Variola virus
Observed Property: IC50

Entry VPKLLLWFN ; assay system HLA-B*07:02; IC50 recorded at ≥ 810 µM

###

biological target: HLA-A*02:03; experiment: IEDB peptide-MHC binding, purified MHC/competitive/radioactivity; filed as Kd, often an IC50 or EC50 that approximates it; bounds were set here for any values at or beyond the usual limits of such assays; conditions: source organism: Vaccinia virus Copenhagen
Observed Property: pKd
Just the number, please; pKd means minus log10 of the concentration in mol/L.

// pKd value for YLRLYIILA : 7.28
